test.summary: Biodistribution: organ distribution of F-18 signal in mice
Assay type: in vivo, male NMRI mice
experimental.conditions: muscle, 240 min post i.v. injection
measure: Organ distribution of F-18 signal, muscle (% ID/g)
Number only, in % ID/g; omit the unit.

Here's what some known entries look like.
compound | units.label | observed.measurement
O=C(NCC(=O)N1CCN(c2ccc(OCc3ccccc3)cn2)CC1)c1ccnc([18F])c1 [Example 14f] | % ID/g | 0.03
O=C(NCC(=O)N1CCN(c2ccc(OCc3ccccc3)cc2)CC1)c1ccc([18F])nc1 [Example 10e] | % ID/g | 0.06
O=C(NCC(=O)N1CCN(c2ccc(OCc3ccccc3)cc2)CC1)c1cccnc1[18F] [Example 12c] | % ID/g | 0.06
O=C(NCC(=O)N1CCN(c2ccc(OCc3ccccc3)cc2)CC1)c1ccnc([18F])c1 [Example 11c] | % ID/g | 0.07

Then there is this compound:
Asked: Consider the compound O=C(NCC(=O)N1CCN(c2ccc(OCc3ccccc3)cc2)CC1)c1cccc(OCC[18F])c1 and give its measured Organ distribution of F-18 signal, muscle.
Given back: 0.30
